B1: GLTSCR2 (parent)
chain: FQRRNMIEPRERAKFKRKYKVKLV

Variants of: B1
Assay comment: protein stability index of a GFP-peptide fusion (GPS, HEK-293T) (PSI 1-6); higher = more stable;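 note: lentivirally expressed fusions sorted by FACS into six bins by GFP to DsRed ratio, PSI derived from sequencing read proportions per bin multiplied by bin number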
Condition description: c terminus: a fixed tail appended
Recorded endpoint: protein stability index
Reply briefly: the number, and no unit.

Return reported protein stability index; argument: P9K
2.52

Return reported protein stability index; argument: K16L
2.53

Which protein stability index reading was recorded for the variant R10Q ?
1.53

Requested field: protein stability index. Item: V21Q
2.81

Recorded protein stability index of R12G , please.
2.6

Item K22F has what recorded protein stability index?
1.73

Field request: protein stability index | item: R17F
1.74

What value of protein stability index has been reported for the following variant? V24W
1.31

Can you look up the measured protein stability index of E8G for me?
2.18

Given the variant R10S , what is its reported protein stability index?
2.13

Return reported protein stability index; argument: K14W
2.85
